The origin of these recorded values is paper PMC5540273.

# Test system: CDKL5;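 further: KINOMEscan kinase panel screen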
# Experimental Conditions: concentration: 1 μM, replicates: in singlicate; n = 1
Value Kind: %Inh (%)
Write the number in % without appending the unit.

INSERT INTO measurements (structure_as_smiles, result_number) VALUES
  ('Cn1c(=O)c(F)c(Nc2ccc(I)cc2F)c2c(=O)n(OC[C@H](O)CO)cnc21', 0);

Ask: Quick one: %Inh of COc1ccc(-c2cc3c(C)nc(N)nc3n([C@H]3CC[C@H](OCCO)CC3)c2=O)cn1 ?
Result: 0

Ask: Would you mind doing CN1C(=O)C(Nc2ccccc2)=C(c2ccccc2)C1=O as well?
Result: 0
